The origin of these recorded values is the supplement of paper PMC12855868.

B1: library; numbered along this chain (parent)
chain: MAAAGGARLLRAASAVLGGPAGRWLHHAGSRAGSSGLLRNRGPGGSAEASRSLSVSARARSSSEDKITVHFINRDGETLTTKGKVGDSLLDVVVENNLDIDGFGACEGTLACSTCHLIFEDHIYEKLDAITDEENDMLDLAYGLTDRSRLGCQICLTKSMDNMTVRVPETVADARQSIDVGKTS

Variants of: B1
ASSAY NAME: scaled log2 fold change in cell abundance, elesclomol vs control (0 = silent mean, 1 = nonsense mean) (scaled log2 ratio); higher = higher viability under elesclomol (loss of FDX1 cuproptosis function);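 further: variant abundance is its share of total variant reads in each endpoint sample, from next-generation sequencing of the integrated ORF PCR-amplified out of genomic DNA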
REPORTED CONDITIONS: with ABC1 FDX1 KO; elesclomol 5 nM; glucose 10 mM; 14 days
Each record gets a class by scaled log2 fold change: low: < -0.006; intermediate: ≥ -0.006 and < 0.2; high: ≥ 0.2

Q: For the record E64D , report the class its scaled log2 fold change corresponds to.
Ans: intermediate

Q: GET /class?item= S34L
Ans: intermediate

Q: Categorize the following entry: R51C
Ans: high

Q: Form: Item = D65R ; Class = ?
Ans: low

Q: Dear colleague, I would appreciate it if you could identify the bin for R74S and reply at your convenience.
Ans: high

Q: Lab note: sort G181I into the matching scaled log2 fold change band.
Ans: high

Q: Kindly state the category for this variant: R51Q
Ans: low

Q: Pick a category. Item: L98T
Ans: low

Q: Band for E125G ?
Ans: low

Q: The entry to classify is A129G ; which class holds it?
Ans: intermediate

Q: Kindly state the category for this variant: D87G
Ans: low

Q: Into which bin does this variant go? Y124D
Ans: intermediate

Q: Which band does A32P fall in?
Ans: high

Q: Entry V94R belongs to which category?
Ans: low

Q: Pick a category. Item: K84D
Ans: low

Q: Input T183D ; output its category
Ans: intermediate

Q: Sort into band: A4I
Ans: intermediate

Q: For this variant, which bin applies? T114P
Ans: high

Q: Quick check: band for V165G
Ans: high

Q: Could you place I67T in its proper category? Many thanks.
Ans: intermediate

Q: Form field 'band' for C152P
Ans: high

Q: # bin label for K82M
Ans: intermediate

Q: State the band of F119R
Ans: high

Q: For the record D161E , report the class its scaled log2 fold change corresponds to.
Ans: low

Q: Hi there! Could you help me figure out the category for D136A please?
Ans: high

Q: Lab note: which band did A111N land in?
Ans: low

Q: # bin lookup: classify S56Y by its scaled log2 fold change
Ans: low

Q: Returns: class label. Input: C155G
Ans: low

Q: Which class is correct for the following variant? R39I
Ans: low

Q: Kindly state the category for this variant: L98I
Ans: low

Q: Category of S14F :
Ans: low

Q: Field: class (scaled log2 fold change) — entry: S30A
Ans: intermediate

Q: Given M163E , name the class its scaled log2 fold change places it in.
Ans: high

Q: Hello team, could you let me know which band the following variant falls into: R11L
Ans: intermediate

Q: Note: place this variant into its band. Item: L38Q
Ans: low

Q: Kindly identify the class of S54Q .
Ans: intermediate

Q: In plain terms, what class is C112V ?
Ans: high

Q: Place this variant in its band: K182N
Ans: intermediate

Q: Each variant maps to one class by scaled log2 fold change. Which class for L89V ?
Ans: high

Q: Where would G181H land among the classes by reported scaled log2 fold change?
Ans: low

Q: Bin? S34V
Ans: intermediate

Q: For the record M137I , report the class its scaled log2 fold change corresponds to.
Ans: intermediate

Q: Each variant maps to one class by scaled log2 fold change. Which class for L150C ?
Ans: low

Q: Given S184N , name the class its scaled log2 fold change places it in.
Ans: intermediate

Q: Tag the class for N73A
Ans: high

Q: Textbook exercise: identify the category of the variant given here, S46V , according to its measured value.
Ans: high

Q: Into which bin does this variant go? G151Y
Ans: high

Q: State the band of R147P
Ans: high

Q: Band for A49E ?
Ans: intermediate

Q: Hello team, could you let me know which band the following variant falls into: K126C
Ans: low

Q: Exam item: assign G22L to the correct category.
Ans: low

Q: Which of the defined bands does the recorded scaled log2 fold change of F103Q sit within?
Ans: high

Q: For the record L17Y , report the class its scaled log2 fold change corresponds to.
Ans: low

Q: Determine which band this variant sits in: D161Y
Ans: high

Q: Assign a bin to R175T
Ans: high

Q: Any idea which band K158N is in?
Ans: low

Q: Note: place this variant into its band. Item: P43Y
Ans: intermediate

Q: State the class of the variant shown: A28D
Ans: high

Q: Which bin should I file A32G under?
Ans: high

Q: Band for G151Q ?
Ans: high

Q: Classify this variant: S62I
Ans: intermediate

Q: For the record P168F , report the class its scaled log2 fold change corresponds to.
Ans: intermediate

Q: In plain terms, what class is K66M ?
Ans: low

Q: Where would N96G land among the classes by reported scaled log2 fold change?
Ans: intermediate

Q: Hi, small favor: classify N97A by its scaled log2 fold change when you get a moment.
Ans: intermediate

Q: Which bin, given its scaled log2 fold change, does A174Q occupy?
Ans: low

Q: Lab log: T157Q — assign scaled log2 fold change category
Ans: intermediate

Q: Band of S63M ?
Ans: intermediate

Q: Dear colleague, I would appreciate it if you could identify the bin for C106R and reply at your convenience.
Ans: high

Q: Which scaled log2 fold change band matches A13L ?
Ans: high

Q: Which scaled log2 fold change band matches R60Y ?
Ans: high

Q: Would you mind sorting P43I into the appropriate category?
Ans: high

Q: Category of G33F , please.
Ans: intermediate

Q: Input A172I ; output its category
Ans: high

Q: Each variant maps to one class by scaled log2 fold change. Which class for V167W ?
Ans: intermediate

Q: Quick check: band for A21G
Ans: intermediate

Q: Lab note: which band did T157G land in?
Ans: low

Q: Band of L53P ?
Ans: intermediate

Q: Could you place P20A in its proper category? Many thanks.
Ans: low

Q: In plain terms, what class is T131I ?
Ans: low

Q: Band for the recorded scaled log2 fold change of K158F ?
Ans: high

Q: Lab note: sort L10C into the matching scaled log2 fold change band.
Ans: low

Q: Which bin, given its scaled log2 fold change, does T157I occupy?
Ans: low
